Form field: HR (one value per entry).
assay: Systemic hemodynamics during infarct experiment; type: in vivo, rabbit; details: Reperfusion 2 h
assay_endpoint: HR (bpm)

{"columns": ["compound", "unit", "reading"],
 "data": [
  ["FC(F)OC(F)(F)C(F)Cl (stereo not shown)", "bpm", 214],
  ["FCOC(C(F)(F)F)C(F)(F)F", "bpm", 193],
  ["FC(F)OC(F)C(F)(F)F (stereo not shown)", "bpm", 216],
  ["FC(F)OC(Cl)C(F)(F)F (stereo not shown)", "bpm", 201]
]}

---

test: Systemic hemodynamics during infarct experiment; type: in vivo, rabbit; conditions: Reperfusion 1 h
The entries below come with measured HR values attached.

{"columns": ["compound", "HR [bpm]"],
 "data": [
  ["FC(F)OC(Cl)C(F)(F)F (stereo not shown) [ISO, isoflurane]", 212],
  ["FC(F)OC(F)C(F)(F)F (stereo not shown) [DES, desflurane]", 201],
  ["FC(F)OC(F)(F)C(F)Cl (stereo not shown) [ENF, enflurane]", 216],
  ["FCOC(C(F)(F)F)C(F)(F)F [SEVO, sevoflurane]", 206]
]}

Taken from patent US7999011B2.
